Assignment: determine reported CTG-3D luminescence at 96 h for the given compounds.
Tested on: HCI-025 (organoid from a breast cancer xenograft)
method: CTG-3D luminescence at 96 h relative to day-0 seeding control (ratio to day 0); higher = more growth / less cytotoxicity; PDxO 3D drug screen (set 2), 96 h, CTG-3D normalised to day-0 seeding control.
test.context: 100 µM; days in culture: 189
Form rule: numeric answer, no unit written next to it.

Input line: Look up CTG-3D luminescence at 96 h for this compound: CCOc1ccn(-c2ccc(F)cc2)c(=O)c1C(=O)Nc1ccc(Oc2ccnc(N)c2Cl)c(F)c1 [ASLAN002]
Output line: 0.561

Input line: Entry COc1cccc2c1C(=O)c1c(O)c3c(c(O)c1C2=O)C[C@@](O)(C(=O)CO)C[C@@H]3O[C@H]1C[C@H](N)[C@@H](O)[C@H](C)O1 [epirubicin] has what CTG-3D luminescence at 96 h?
Output line: -0.0017

Input line: Reported CTG-3D luminescence at 96 h, compound C[C@@H](Nc1cc(F)cc(F)c1)c1cc(C(=O)N(C)C)cc2c(=O)cc(N3CCOCC3)oc12 [AZD-8186] : ____
Output line: 0.528

Input line: Can you look up the measured CTG-3D luminescence at 96 h of Cc1c(CN2CCN(C(=O)[C@H](C)O)CC2)sc2c(N3CCOCC3)nc(-c3cnc(N)nc3)nc12 [apitolisib] for me?
Output line: 0.121

---

Provide the reported CTG-3D luminescence at 96 h of each item.
Tested on: HCI-025
method: CTG-3D luminescence at 96 h relative to day-0 seeding control (ratio to day 0); higher = more growth / less cytotoxicity; PDxO 3D drug screen, 96 h, CTG-3D normalised to day-0 seeding control.
test.context: 100 µM; days in culture: 209
Would you mind answering with just the numeric figure?

Input line: What CTG-3D luminescence at 96 h value was documented for this compound, `C/C=C1\NC(=O)[C@H]2CSSCC/C=C/[C@H](CC(=O)N[C@H](C(C)C)C(=O)N2)OC(=O)[C@H](C(C)C)NC1=O` ?
Output line: -0.0293

Input line: Look up CTG-3D luminescence at 96 h: `C[C@@H]1COCCN1c1cc(C2([S@](C)(=N)=O)CC2)nc(-c2cc[nH]c3nccc2-3)n1`
Output line: 0.184

Input line: Look at this compound and give its reported CTG-3D luminescence at 96 h. `CCN1CCN(Cc2ccc(Nc3ncc(F)c(-c4cc(F)c5nc(C)n(C(C)C)c5c4)n3)nc2)CC1`
Output line: 0.0124

Input line: What value of CTG-3D luminescence at 96 h has been recorded for this entry: CN(Cc1cnc2nc(N)nc(N)c2n1)c1ccc(C(=O)N[C@@H](CCC(=O)O)C(=O)O)cc1 [methotrexate]
Output line: 0.76

---

Kindly state CTG-3D luminescence at 96 h for each of the entries shown.
Tested on: HCI-016 (organoid from a triple-negative breast cancer xenograft)
method: CTG-3D luminescence at 96 h relative to day-0 seeding control (ratio to day 0); higher = more growth / less cytotoxicity; PDxO 3D drug screen (set 2), 96 h, CTG-3D normalised to day-0 seeding control.
test.context: 625 fM; days in culture: 327
Answer with a number only.

Input line: Which CTG-3D luminescence at 96 h is listed for `O=C(c1cc(Cc2n[nH]c(=O)c3ccccc23)ccc1F)N1CCN(C(=O)C2CC2)CC1` ?
Output line: 1.74

Input line: Quick one: CTG-3D luminescence at 96 h of `Cc1c(CN2CCN(C(=O)[C@H](C)O)CC2)sc2c(N3CCOCC3)nc(-c3cnc(N)nc3)nc12` ?
Output line: 1.62

Input line: Bench note: what CTG-3D luminescence at 96 h did `CS(=O)(=O)CCNCc1ccc(-c2ccc3ncnc(Nc4ccc(OCc5cccc(F)c5)c(Cl)c4)c3c2)o1` show?
Output line: 2.05

---

Tested on: HCI-019 (organoid from a triple-negative breast cancer xenograft)
method: CTG-3D luminescence at 96 h relative to day-0 seeding control (ratio to day 0); higher = more growth / less cytotoxicity; PDxO 3D drug screen (set 2), 96 h, CTG-3D normalised to day-0 seeding control.
test.context: 1 µM; days in culture: 173
measured.parameter: CTG-3D luminescence at 96 h

Input line: Entry `CO[C@H]1C[C@@H]2CC[C@@H](C)[C@@](O)(O2)C(=O)C(=O)N2CCCC[C@H]2C(=O)O[C@H]([C@H](C)C[C@@H]2CC[C@@H](O)[C@H](OC)C2)CC(=O)[C@H](C)/C=C(\C)[C@@H](O)[C@@H](OC)C(=O)[C@H](C)C[C@H](C)/C=C/C=C/C=C/1C` : reported CTG-3D luminescence at 96 h = ?
Output line: 1.36

Input line: Sample `Nc1cc(C(F)(F)F)c(-c2cc(N3CCOCC3)nc(N3CCOCC3)n2)cn1` — what was its CTG-3D luminescence at 96 h?
Output line: 1.45

Input line: Look up CTG-3D luminescence at 96 h for this compound: `Cc1c(CN2CCN(C(=O)[C@H](C)O)CC2)sc2c(N3CCOCC3)nc(-c3cnc(N)nc3)nc12`
Output line: 0.88

Input line: Which value of CTG-3D luminescence at 96 h has been reported for `CS(=O)(=O)CCNCc1ccc(-c2ccc3ncnc(Nc4ccc(OCc5cccc(F)c5)c(Cl)c4)c3c2)o1` in the records?
Output line: 1.9

Input line: Any idea what CTG-3D luminescence at 96 h was measured for `CO[C@H]1C[C@@H]2CC[C@@H](C)[C@@](O)(O2)C(=O)C(=O)N2CCCC[C@H]2C(=O)O[C@H]([C@H](C)C[C@@H]2CC[C@@H](OCCO)[C@H](OC)C2)CC(=O)[C@H](C)/C=C(\C)[C@@H](O)[C@@H](OC)C(=O)[C@H](C)C[C@H](C)/C=C/C=C/C=C/1C` ?
Output line: 1.1

Input line: Please look up its CTG-3D luminescence at 96 h: COc1cccc2c1C(=O)c1c(O)c3c(c(O)c1C2=O)C[C@@](O)(C(=O)CO)C[C@@H]3O[C@H]1C[C@H](N)[C@@H](O)[C@H](C)O1 [epirubicin]
Output line: 0.176

---

System: HCI-001 (organoid from a triple-negative breast cancer xenograft)
method: CTG-3D luminescence at 96 h relative to day-0 seeding control (ratio to day 0); higher = more growth / less cytotoxicity; PDxO 3D drug screen, 96 h, CTG-3D normalised to day-0 seeding control.
test.context: 1 µM; days in culture: 327
Mark True for reported CTG-3D luminescence at 96 h of 1 or greater; mark False for anything smaller.

Input line: Is CTG-3D luminescence at 96 h for `CC[C@H](NC(=O)[C@H](C)NC)C(=O)N1C[C@@H](O)C[C@H]1Cc1c(-c2[nH]c3cc(F)ccc3c2C[C@@H]2C[C@H](O)CN2C(=O)[C@H](CC)NC(=O)[C@H](C)NC)[nH]c2cc(F)ccc12` at or above 1?
Output line: True

Input line: Would you say `COc1cccc2c1C(=O)c1c(O)c3c(c(O)c1C2=O)C[C@@](O)(C(=O)CO)C[C@@H]3O[C@H]1C[C@H](N)[C@H](O)[C@H](C)O1` shows CTG-3D luminescence at 96 h at minimum 1?
Output line: True

Input line: Given `O=C(/C=C/c1cccnc1)NCCCCC1CCN(C(=O)c2ccccc2)CC1` , state whether its CTG-3D luminescence at 96 h is at least 1.
Output line: False

Input line: Does the reported CTG-3D luminescence at 96 h for `C[C@@H]1COCCN1c1cc(C2([S@](C)(=N)=O)CC2)nc(-c2cc[nH]c3nccc2-3)n1` fall at or above the 1 mark?
Output line: True

Input line: Does CTG-3D luminescence at 96 h meet or surpass 1 for `NC1(C(=O)N[C@@H](CCO)c2ccc(Cl)cc2)CCN(c2nc[nH]c3nccc2-3)CC1` ?
Output line: False

Input line: Textbook exercise: given the entry `NC(=O)c1cccc2cn(-c3ccc([C@@H]4CCCNC4)cc3)nc12` , state whether its CTG-3D luminescence at 96 h is greater than or equal to 1.
Output line: True

Input line: Is CTG-3D luminescence at 96 h at least 1? Consider `CC(C)n1nc(-c2ccc3oc(N)nc3c2)c2c(N)ncnc21`
Output line: False

---

Tested on: HCI-001
method: CTG-3D luminescence at 96 h relative to day-0 seeding control (ratio to day 0); higher = more growth / less cytotoxicity; PDxO 3D drug screen, 96 h, CTG-3D normalised to day-0 seeding control.
test.context: 10 µM; days in culture: 327
measured.parameter: CTG-3D luminescence at 96 h

Input line: Look up CTG-3D luminescence at 96 h: `CC(C)(C(=O)NCC(F)(F)C(F)(F)F)C(=O)N[C@@H]1C(=O)Nc2ccccc2-c2ccccc21`
Output line: 1.04

Input line: Using the record for `C/C=C1\NC(=O)[C@H]2CSSCC/C=C/[C@H](CC(=O)N[C@H](C(C)C)C(=O)N2)OC(=O)[C@H](C(C)C)NC1=O` , report its CTG-3D luminescence at 96 h.
Output line: -0.124

Input line: Give its CTG-3D luminescence at 96 h value. Item: `COc1cccc2c1C(=O)c1c(O)c3c(c(O)c1C2=O)C[C@@](O)(C(=O)CO)C[C@@H]3O[C@H]1C[C@H](N)[C@H](O)[C@H](C)O1`
Output line: 0.146
